experimentalTarget: UniProt P21731
Sequence (P21731 whole entry): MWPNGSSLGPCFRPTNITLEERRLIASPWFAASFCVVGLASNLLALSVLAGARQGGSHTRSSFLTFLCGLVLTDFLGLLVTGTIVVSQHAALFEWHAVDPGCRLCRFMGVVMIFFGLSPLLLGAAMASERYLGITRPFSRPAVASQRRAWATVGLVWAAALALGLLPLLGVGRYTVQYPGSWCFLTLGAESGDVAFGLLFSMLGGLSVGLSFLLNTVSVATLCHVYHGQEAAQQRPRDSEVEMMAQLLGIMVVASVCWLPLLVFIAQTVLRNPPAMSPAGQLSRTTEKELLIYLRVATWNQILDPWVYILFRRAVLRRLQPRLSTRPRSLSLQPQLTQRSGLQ
assayDetails: Antagonistic activity at Thromboxane A2 receptor in human was determined
propertyName: pKi
Scale: pKi equals -log10([C]), with [C] in mol/L.

Example results:
1. CSc1ccc(Cc2ccccc2/C=C/C(=O)O)cc1 | 5.34
2. O=C(O)/C=C/c1ccccc1Cc1ccc2ccccc2c1 | 5.00
3. O=C(O)/C=C/c1ccccc1Cc1ccc(Cl)cc1Cl | 6.28

Kindly consider the entry below.
// query Fill in pKi for `O=C(O)/C=C/c1ccccc1Cc1ccc(Cl)c(Cl)c1` tested with UniProt P21731.
// result 6.05
